assay: Oral bioavailability of hydrocodone conjugates in rats, LC/MS/MS; conditions: male, Sprague-Dawley, rat, plasma, po, 25 mg/kg
endpoint.label: concentration at 0.1 h (ng/mL)
One number for each entry, in ng/mL.

Bench note: what concentration at 0.1 h did COc1ccc2c3c1O[C@H]1C(=O)CC[C@H]4[C@@H](C2)N(C)CC[C@]314 [Hydrocodone, reference compound] show?
409

====

assay: Intranasal bioavailability in rats, LC/MS/MS; details: male, Sprague-Dawley, rat, plasma, inhaled or intranasal, 3 mg/kg
endpoint.label: Cmax (ng/mL)
Answers are plain numbers, in ng/mL.

Bench note: what Cmax did CC(Cc1ccccc1)NC(=O)C(N)CCCCN (stereo not shown) show?
3350
